- Tested on: Syrian golden hamster
- Procedure summary: Antidyslipidemic activity in high fat diet-fed dyslipidemic syrian golden hamster model assessed as decrease in serum LDL level at 10 mg/kg, po administered once daily for 7 days relative to vehicle treated control
- Format: functional, Mesocricetus auratus
- Parameters: scale not given: the % may be the effect or the level left
Metric: Activity
Please append the unit to your numeric answer.

What measured Activity goes with `Cc1cccc(C)c1N/C=C1\C=C(C=O)c2c(ccc3c(C)cc(=O)oc23)C1=O` ?
40%

What measured Activity goes with `Cc1cc(=O)oc2c3c(ccc12)C(=O)/C(=C/NCCCO)C=C3C=O` ?
21%

What measured Activity goes with `Cc1cc(=O)oc2c3c(ccc12)C(=O)/C(=C/NCCBr)C=C3C=O` ?
10%

What measured Activity goes with `COc1ccc(CN/C=C2\C=C(C=O)c3c(ccc4c(C)cc(=O)oc34)C2=O)cc1` ?
54%

What measured Activity goes with `Cc1cc(=O)oc2c3c(ccc12)C(=O)/C(=C/NCC(C)(C)CO)C=C3C=O` ?
36%

What measured Activity goes with `Cc1cc(=O)oc2c3c(ccc12)C(=O)/C(=C/NCCCl)C=C3C=O` ?
14%

What measured Activity goes with `Cc1cc(=O)oc2c3c(ccc12)C(=O)/C(=C/NC12CC4CC(CC(C4)C1)C2)C=C3C=O` ?
59%

What measured Activity goes with `COc1cccc(CN/C=C2\C=C(C=O)c3c(ccc4c(C)cc(=O)oc34)C2=O)c1` ?
59%

What measured Activity goes with `Cc1cc(=O)oc2c3c(ccc12)C(=O)/C(=C/NC1CCCCC1)C=C3C=O` ?
10%

What measured Activity goes with `CC(C)c1c(C(=O)Nc2ccccc2)c(-c2ccccc2)c(-c2ccc(F)cc2)n1CC[C@@H](O)C[C@@H](O)CC(=O)O` ?
23%

Data provenance is ChEMBL document CHEMBL1914346.
